Measured values drawn from patent US20110150903A1 for this set.

The following binders are listed with their measured kon values.
target: T1, hFGFR4-Histag (human, UniProt P22455 22-365); experiment: SPR (BIAcore 3000)
T1 construct: also called SABVA4614
T1 sequence (P22455 other isoform, or with tags, fused parts or gaps): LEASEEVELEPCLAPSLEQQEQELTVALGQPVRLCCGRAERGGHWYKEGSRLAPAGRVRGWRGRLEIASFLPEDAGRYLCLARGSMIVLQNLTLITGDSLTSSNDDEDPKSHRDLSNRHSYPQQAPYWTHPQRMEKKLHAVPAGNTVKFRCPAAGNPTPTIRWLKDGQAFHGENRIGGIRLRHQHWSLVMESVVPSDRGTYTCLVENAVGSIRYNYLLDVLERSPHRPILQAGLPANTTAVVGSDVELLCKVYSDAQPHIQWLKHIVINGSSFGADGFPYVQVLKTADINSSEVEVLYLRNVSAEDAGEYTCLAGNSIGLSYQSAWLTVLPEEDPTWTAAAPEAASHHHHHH
REPORTED_METRIC: kon (M⁻¹ s⁻¹)

• anti-FGFR4 antibody clone 36 (human IgG1 format) (antibody, V domains shown, As for clone 8: human IgG1 format from HEK293; also called antibody 36) VH: EVQLLESGGGLVQPGGSLRLSCAASGFTFSHYWMGWVRQAPGKGLEWVSVISPSGGLTIYADSVKGRFTISRDNSKNTLYLQMNSLRAEDTAVYYCARSSGWALDAFDIWGQGTMVTVSS VL: QYELTQPPSASGTPGQRVTISCSGSSSNIGSNIVHWYQQLPGTAPKLLIYGNNQRPSGVPDRFSVSKSGSSASLAISGLQSEDEADYYCASWDDSLKAFYVFGTGTKVTVLG = 244000
• anti-FGFR4 antibody clone 33 (human IgG1 format) (antibody, V domains shown, As for clone 8: human IgG1 format from HEK293; also called antibody 33) VH: EVQLLESGGGLVQPGGSLRLSCAASGFTFSTYWMAWVRQAPGKGLEWVSVIGPSGGMTVYADSVKGRFTISRDNSKNTLYLQMNSLRAEDTAVYYCARINSGSSHFDYWGQGTLVTVSS VL: QSVLTQPPSASGTPGQGVTISCSGSSSNIGSNSVNWYQQLPGAAPKLLIYSNNLRPSGVPARFSGSKSGTSASLAISGLRSEDEADYYCAAWDDGLDAYVVFGGGTKLTVLG = 805000
• anti-FGFR4 antibody clone 8 (human IgG1 format) (antibody, V domains shown, also called antibody 8) VH: EVQLLESGGGLVQPGGSLRLSCAASGFTFSPYWMGWVRQAPGKGLEWVSVIWPSGGTTDYADSVKGRFTISRDNSKNTLYLQMNSLRAEDTAVYYCARVHPAGHNDHWGQGTLVTVSS VL: QSELTQPPSASGTPGQRVTISCSGGYSNMGSNYAHWYQQLPGTAPKLLIYNNNQRPSGVPDRFSGSKSGTSASLAISGLRSEDEADYYCAAWDDSLSGPVFGGGTKLTVLG = 893000
• anti-FGFR4 antibody clone 31 (human IgG1 format) (antibody, V domains shown, As for clone 8: human IgG1 format from HEK293; also called antibody 31) VH: EVQLLESGGGLVQPGGSLRLSCAASGFTFSRYFMKWVRQAPGKGLEWVSWISPSGGLTEYADSVKGRFTISRDNSKNTLYLQMNSLRAEDTAVYYCARASYGAWLDYWGQGTLVTVSS VL: DIQMTQSPSSLSLSPGERATLSCRASQSINRNLGWYQQKPGQAPRLLIYGASTRATGIPARFTGSGSGTEFSLTISSLQSEDYAIYYCQQYDNWPIIFGQGTRLEIKG = 648000
